Taken from PubChem BioAssay (NCI).

Answer each item with its documented TGI.
tested on: M19-MEL melanoma; assay: NCI tumour cell line growth inhibition, 48 h
Where a SMILES comes first, the peptide text is derived from it. [ ]: non-standard residue; d: D form. The star is where a group is joined. ξ: configuration not given here. NMeF = CN[C@@H](Cc1ccccc1)C(=O)O; NMeV = CN[C@H](C(=O)O)C(C)C; ξNMeV = CNC(C(=O)O)C(C)C; Boc = CC(C)(C)OC(=O)*; OBn = c1ccc(CO*)cc1

COMPOUND | TGI
CCCCOC(=O)NC(=O)c1cn(CCCOC(=O)CCCCCCCCC(=O)OCCCn2cc(C(=O)NC(=O)OCCCC)c(=O)n(C)c2=O)c(=O)n(C)c1=O | > 100 µM
CC(C)C(C(=O)N(C)[C@H](C(=O)N1CCC[C@H]1C(=O)N(C)[C@@H](Cc1ccccc1)C(=O)OCc1ccccc1)C(C)C)N(C)C(=O)[C@@H](NC(=O)OC(C)(C)C)C(C)C (stereo partly specified) (Boc-V[ξNMeV][NMeV]P[NMeF]-OBn) | > 31.6 µM
NC(=O)c1ncn(C2OC(CO)C(O)C2O)c1O (stereo unspecified) | > 100 µM

Provide reported TGI for each item, in the same order as listed.
1. CCO/C(O)=c1/s/c(=C(\C#N)c2nc3ccccc3[nH]2)n(-c2ccccc2)c1=N
2. Cc1cc(Br)ccc1N=Nc1c(C)nn(-c2ccccc2)c1-c1ccccc1
3. CCCCCCCCCCCCCS(=O)(=O)NCC(N)=O
4. CC1(C)C(=O)/C=C\C(=O)C(C)(C)C(=O)/C=C\C(=O)C(C)(C)C2=CC=C(O2)C(C)(C)C(=O)/C=C\C1=O
5. CC12CCc3ccccc3C1=NNC(=O)C2 (stereo unspecified)
6. COc1ccc2c(c1)[n+]([O-])c(-c1ccccc1Cl)c(N)[n+]2[O-]
7. CN(C)CCC[N+]1=Nc2cccc3cccc(c23)N1

1: > 100 µM; 2: > 100 µM; 3: > 100 µM; 4: 13.6 µM; 5: > 100 µM; 6: > 100 µM; 7: > 100 µM

Which TGI value is on record for CC(=O)OCC1OC(N=[N+]=[N-])C(OC(C)=O)C(OC(C)=O)C1OC1OC(COC(C)=O)C(OC(C)=O)C(OC(C)=O)C1OC(C)=O (stereo unspecified) ? > 100 µM
